system: Pseudomonas aeruginosa; assay: Antimicrobial activity against Pseudomonas aeruginosa ATCC 27853 after 24 hrs by microbroth dilution method; assay type: functional; details: ATCC 27853, 24 h
observedProperty: log10 of MIC (log10 of the value in µg/mL)
The figures below represent log10 of MIC, where MIC is stated in µg/mL.

Hello, I would appreciate it if you could give log10 of MIC for each entry below.
1. COc1ccc2cc3[n+](cc2c1OCCN(CCn1nnc2ccccc21)Cc1ccc(F)cc1F)CCc1cc2c(cc1-3)OCO2.[Cl-]
2. COc1ccc2cc3[n+](cc2c1OCCN(CCn1cnc2ccccc21)Cc1ccc(F)cc1F)CCc1cc2c(cc1-3)OCO2.[Cl-]
3. Fc1ccc(CN(CCBr)CCn2cnc3ccccc32)c(F)c1
4. Fc1ccc(CN(CCBr)CCn2ccnc2)c(F)c1
5. COc1ccc2cc3[n+](cc2c1OCCN(CCSc1nc2ccccc2[nH]1)Cc1ccc(F)cc1F)CCc1cc2c(cc1-3)OCO2.[Cl-]
6. Fc1ccc(CN(CCBr)CCn2nnc3ccccc32)c(F)c1
7. COc1ccc2cc3[n+](cc2c1OCCN(CCn1ccnc1)Cc1ccc(F)cc1F)CCc1cc2c(cc1-3)OCO2.[Cl-]
8. Cc1cc2ncn(CCN(CCBr)Cc3ccc(F)cc3F)c2cc1C

Reply:
1: 1.81; 2: 1.20; 3: 2.11; 4: 1.51; 5: 1.81; 6: 2.11; 7: 1.20; 8: 1.81

Ask: Please give the measured log10 of MIC for this compound: COc1ccc2cc3[n+](cc2c1OCCN(CCn1cnc2cc(C)c(C)cc21)Cc1ccc(F)cc1F)CCc1cc2c(cc1-3)OCO2.[Cl-]
Reply: 0.90
